- subject.of.test: UniProt P21554
- Sequence (P21554 whole entry): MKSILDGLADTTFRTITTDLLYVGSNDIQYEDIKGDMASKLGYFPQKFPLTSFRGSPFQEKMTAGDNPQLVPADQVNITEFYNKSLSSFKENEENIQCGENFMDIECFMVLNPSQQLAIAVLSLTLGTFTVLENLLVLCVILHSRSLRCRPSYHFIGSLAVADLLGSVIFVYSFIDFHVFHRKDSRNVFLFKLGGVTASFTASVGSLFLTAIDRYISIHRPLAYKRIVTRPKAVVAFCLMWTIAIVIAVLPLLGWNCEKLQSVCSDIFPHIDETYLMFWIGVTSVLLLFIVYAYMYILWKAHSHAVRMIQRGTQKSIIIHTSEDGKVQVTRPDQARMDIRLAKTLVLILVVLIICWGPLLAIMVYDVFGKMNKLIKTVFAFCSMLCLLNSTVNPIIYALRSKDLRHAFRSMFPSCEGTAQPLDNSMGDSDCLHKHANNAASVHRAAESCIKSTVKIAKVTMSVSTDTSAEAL
- method.summary: Displacement of [3H]CP-55940 from human CB1 receptor expressed in CHO-K1 cells
- Assay type: cell-based
pIC50: −log10 of the molar value.
readout.kind: pIC50

NC(=O)Cc1c(C(=O)N2CCC(c3ncccn3)CC2)nn(-c2ccccc2Cl)c1-c1ccc(Cl)cc1 ... 8.85
N#CC1(c2ccccc2)CCN(C(=O)c2nn(-c3ccccc3Cl)c(-c3ccc(Cl)cc3)c2CC(N)=O)CC1 ... 9.11
NC(=O)Cc1c(C(=O)N2CCC(C(=O)O)(c3ccccn3)CC2)nn(-c2ccccc2Cl)c1-c1ccc(Cl)cc1 ... 7.64
N#Cc1ccc(N2CCN(C(=O)c3nn(-c4ccccc4Cl)c(-c4ccc(Cl)cc4)c3CC(N)=O)CC2)nc1 ... 8.34

I: NC(=O)Cc1c(C(=O)NC2CCN(C(=O)C3CC3)CC2)nn(-c2ccccc2Cl)c1-c1ccc(Cl)cc1
II: Cc1ccncc1NC(=O)c1nn(-c2ccccc2Cl)c(-c2ccc(Cl)cc2)c1CC(N)=O
**Query** Out of I and II , name the one with the higher pIC50. Give the label under which the chosen entry appears.
**Result** II
(II: 9.26, I: 8.43)
